Values from patent US4923892A

# experiment: LD50 in rats
# experimental_conditions: rat, in vivo, ip
reported_endpoint: LD50

Would you mind telling me what LD50 value was observed for CN(C)CC/C=C1/c2ccccc2COc2ccc(C(=O)O)cc21 [Compound 1] ?
~210 mg/kg

###

# experiment: LD50 in rats
# experimental_conditions: rat, in vivo, po
reported_endpoint: LD50

Tell me the measured LD50 of CN(C)CC/C=C1/c2ccccc2COc2ccc(C(=O)O)cc21 [Compound 1] , please.
> 500 mg/kg
